# tgt: Avi-KRAS G12R (1-169) GppNHp/RAF1 RBD-3xFLAG (52-151) (Homo sapiens, UniProt P01116, G12R)
# Construct: Avi-KRAS G12R (1-169)
# Sequence (P01116 1-169 isoform P01116-2 G12R): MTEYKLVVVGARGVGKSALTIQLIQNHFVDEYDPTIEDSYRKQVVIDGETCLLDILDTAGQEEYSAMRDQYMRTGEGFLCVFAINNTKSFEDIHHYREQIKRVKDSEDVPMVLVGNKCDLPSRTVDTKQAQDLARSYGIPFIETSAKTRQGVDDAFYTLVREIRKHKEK
# assayOverview: Raf1-KRAS G12R-GppNHP disruption HTRF assay (Biological Example 1)
# Type: binding
# measurementConditions: KRAS G12R-GppNHp/RAF1 RBD HTRF
Please go through the items and note down their IC50.

1. CCN(c1nc(OC[C@@]23CCCN2C[C@H](F)C3)nc2c(F)c(-c3ccc(F)c4sc(N)c(C#N)c34)c(C(F)(F)F)cc12)[C@@H]1CCN(C(=O)OC)[C@@H]1C = 100 to 1000 nM
2. CCN(c1nc(OC[C@@]23CCCN2C[C@H](F)C3)nc2c(F)c(-c3ccc(F)c4sc(N)c(C#N)c34)c(C(F)(F)F)cc12)[C@H]1C[C@H](C)N(C(=O)COC)C1 (atropisomer, axis not shown) = < 100 nM
3. CN(Cc1cccnc1N)c1nc(OC[C@@]23CCCN2C[C@H](F)C3)nc2c(F)c(-c3ccc(F)c4sc(N)c(C#N)c34)c(C(F)(F)F)cc12 = 100 to 1000 nM
4. N#Cc1c(N)sc2c(F)ccc(-c3c(C(F)(F)F)cc4c(N5C[C@H]6C[C@@H]5[C@@H](O)C6)nc(OC[C@@]56CCCN5C[C@H](F)C6)nc4c3F)c12 = 1000 to 10000 nM
5. CN(c1nc(OC[C@@]23CCCN2C[C@H](F)C3)nc2c(F)c(-c3ccc(F)c4sc(N)c(C#N)c34)c(C(F)(F)F)cc12)[C@@H]1CC(=O)N(Cc2ccccc2)C1 = 100 to 1000 nM

Give IC50 for each of the items listed below.
1. CCC(=O)N1CC[C@@](C)(N(C)c2nc(OC[C@@]34CCCN3C[C@H](F)C4)nc3c(F)c(-c4ccc(F)c5sc(N)c(C#N)c45)c(C(F)(F)F)cc23)[C@H]1C
2. C[C@@H]1[C@H](N(C)c2nc(OC[C@@]34CCCN3C[C@H](F)C4)nc3c(F)c(-c4ccc(F)c5sc(N)c(C#N)c45)c(Cl)cc23)CCN1C(=O)C(F)F
3. CCN(c1nc(OC[C@@]23CCCN2C[C@H](F)C3)nc2c(F)c(-c3ccc(F)c4sc(N)c(C#N)c34)c(C(F)(F)F)cc12)[C@H]1CCN(C(=O)C2CC2(F)F)C1 (stereo partly shown)
4. C[C@H]1C[C@H](N(C)c2nc(OC[C@@]34CCCN3C[C@H](F)C4)nc3c(F)c(-c4ccc(F)c5sc(N)c(C#N)c45)c(C(F)(F)F)cc23)CN1C(=O)C1CC1
5. C[C@@H]1[C@H](N(C)c2nc(OC[C@@]34CCCN3C[C@H](F)C4)nc3c(F)c(-c4ccc(F)c5sc(N)c(C#N)c45)c(Cl)cc23)CCN1C(=O)C(C)(F)F

A.
1: > 10000 nM; 2: 1000 to 10000 nM; 3: < 100 nM; 4: 100 to 1000 nM; 5: 1000 to 10000 nM

* * *

# tgt: Avi-KRAS G12V (2-169) GTP/RAF1 RBD-3xFLAG (51-131) (Homo sapiens, UniProt P01116, G12V)
# Construct: Avi-KRAS G12V (2-169)
# Sequence (P01116 2-169 isoform P01116-2 G12V): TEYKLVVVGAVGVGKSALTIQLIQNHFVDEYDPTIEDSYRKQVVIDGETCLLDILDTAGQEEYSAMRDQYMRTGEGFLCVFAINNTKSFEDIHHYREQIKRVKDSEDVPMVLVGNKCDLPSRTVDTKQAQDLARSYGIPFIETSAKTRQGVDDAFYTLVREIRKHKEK
# assayOverview: Raf1-KRAS G12V-GTP disruption HTRF assay (Biological Example 3)
# Format: binding
# measurementConditions: KRAS G12V, GTP-loaded
pIC50: −log10 of the molar value.
Please go through the items and note down their pIC50.

Example results:
1. CCN(c1nc(OC[C@@]23CCCN2C[C@H](F)C3)nc2c(F)c(-c3ccc(F)c4sc(N)c(C#N)c34)c(C(F)(F)F)cc12)[C@@H]1CC(=O)N(C2CC2)C1 (atropisomer, axis not shown) [Compound 703] = 5.00 to 6.00
2. CCN(c1nc(OC[C@@]23CCCN2C[C@H](F)C3)nc2c(F)c(-c3ccc(F)c4sc(N)c(C#N)c34)c(C(F)(F)F)cc12)[C@H]1C[C@H]2[C@H](C)N(C)C(=O)N2C1 (atropisomer, axis not shown) = ≥ 7.00
3. CCN(c1nc(OC[C@@]23CCCN2C[C@H](F)C3)nc2c(F)c(-c3ccc(F)c4sc(N)c(C#N)c34)c(C(F)(F)F)cc12)[C@H]1C[C@@H](C(=O)N(C)C)C1 (atropisomer, axis not shown) = 5.00 to 6.00

Give pIC50 for each of the items listed below.
1. CN(Cc1ccon1)c1nc(OC[C@@]23CCCN2C[C@H](F)C3)nc2c(F)c(-c3ccc(F)c4sc(N)c(C#N)c34)c(C(F)(F)F)cc12 (atropisomer, axis not shown)
2. CCN(c1nc(OC[C@@]23CCCN2C[C@H](F)C3)nc2c(F)c(-c3ccc(F)c4sc(N)c(C#N)c34)c(C(F)(F)F)cc12)[C@H]1C[C@H](COC)N(C(=O)[C@@H]2CCO2)C1 (atropisomer, axis not shown)
3. CCN(c1nc(OC[C@@]23CCCN2C[C@H](F)C3)nc2c(F)c(-c3ccc(F)c4sc(N)c(C#N)c34)c(C(F)(F)F)cc12)[C@H]1C[C@H](C)N(C(=O)c2coc(C)n2)C1 (atropisomer, axis not shown)
4. CCN(c1nc(OC[C@@]23CCCN2C[C@H](F)C3)nc2c(F)c(-c3ccc(F)c4sc(N)c(C#N)c34)c(C(F)(F)F)cc12)[C@H]1CCN(c2ccccn2)C1
5. C[C@@H](c1cccnc1)N(C)c1nc(OC[C@@]23CCCN2C[C@H](F)C3)nc2c(F)c(-c3ccc(F)c4sc(N)c(C#N)c34)c(C(F)(F)F)cc12
6. CN(Cc1cncnc1)c1nc(OC[C@@]23CCCN2C[C@H](F)C3)nc2c(F)c(-c3ccc(F)c4sc(N)c(C#N)c34)c(C(F)(F)F)cc12 (atropisomer, axis not shown)
7. CCN(c1nc(OC[C@@]23CCCN2C[C@H](F)C3)nc2c(F)c(-c3ccc(F)c4sc(N)c(C#N)c34)c(C(F)(F)F)cc12)[C@@H]1CC[C@@H](C(=O)N(C)C)C1 (atropisomer, axis not shown)
8. C[C@H](c1cccnc1N)N(C)c1nc(OC[C@@]23CCCN2C[C@H](F)C3)nc2c(F)c(-c3ccc(F)c4sc(N)c(C#N)c34)c(C(F)(F)F)cc12 (atropisomer, axis not shown)

A.
1. 6.00 to 7.00
2. 6.00 to 7.00
3. ≥ 7.00
4. < 5.00
5. 5.00 to 6.00
6. 6.00 to 7.00
7. 5.00 to 6.00
8. ≥ 7.00

Give pIC50 for each of the items listed below.
1. CCN(c1nc(OC[C@@]23CCCN2C[C@H](F)C3)nc2c(F)c(-c3ccc(F)c4sc(N)c(C#N)c34)c(C(F)(F)F)cc12)[C@H]1C[C@H]2CC(C)(C)C(=O)N2C1 (atropisomer, axis not shown)
2. CN(c1nc(OCC23CCCN2CC(F)C3)nc2c(F)c(-c3ccc(F)c4sc(N)c(C#N)c34)c(C(F)(F)F)cc12)C1CCc2ccncc21 (stereo not drawn) [Compound 962]

A.
1: 6.00 to 7.00; 2: < 5.00

Give pIC50 for each of the items listed below.
1. CCN(c1nc(OC[C@@]23CCCN2C[C@H](F)C3)nc2c(F)c(-c3ccc(F)c4sc(N)c(C#N)c34)c(C(F)(F)F)cc12)[C@H]1CCN(C(=O)c2ccc(C#N)s2)C1 (atropisomer, axis not shown)
2. CCN(c1nc(OC[C@@]23CCCN2C[C@H](F)C3)nc2c(F)c(-c3ccc(F)c4sc(N)c(C#N)c34)c(C(F)(F)F)cc12)[C@H]1CC(=O)N2CCC[C@@H]12 (atropisomer, axis not shown; (aS))
3. CN(c1nc(OC[C@@]23CCCN2C[C@H](F)C3)nc2c(F)c(-c3ccc(F)c4sc(N)c(C#N)c34)c(C(F)(F)F)cc12)[C@H]1CCCc2ccncc21 (atropisomer, axis not shown)
4. N#Cc1c(N)sc2c(F)ccc(-c3c(C(F)(F)F)cc4c(N5CCOCC5)nc(OC[C@@]56CCCN5C[C@H](F)C6)nc4c3F)c12 (single isomer, unassigned)

A.
1: 6.00 to 7.00; 2: ≥ 7.00; 3: < 5.00; 4: 6.00 to 7.00

Q. Identify the measured pIC50 of CCN(c1nc(OC[C@@]23CCCN2C[C@H](F)C3)nc2c(F)c(-c3ccc(F)c4sc(N)c(C#N)c34)c(C(F)(F)F)cc12)[C@H]1C[C@H](COC)N(C(=O)N2CC(F)C2)C1 for Avi-KRAS G12V (2-169) GTP/RAF1 RBD-3xFLAG (51-131) (Homo sapiens, UniProt P01116, G12V).
A. 6.00 to 7.00

Each recorded value in this set is attributed to patent US20260042764A1.
